Target: DPP4 (Homo sapiens, UniProt P27487)
Sequence (P27487 whole entry): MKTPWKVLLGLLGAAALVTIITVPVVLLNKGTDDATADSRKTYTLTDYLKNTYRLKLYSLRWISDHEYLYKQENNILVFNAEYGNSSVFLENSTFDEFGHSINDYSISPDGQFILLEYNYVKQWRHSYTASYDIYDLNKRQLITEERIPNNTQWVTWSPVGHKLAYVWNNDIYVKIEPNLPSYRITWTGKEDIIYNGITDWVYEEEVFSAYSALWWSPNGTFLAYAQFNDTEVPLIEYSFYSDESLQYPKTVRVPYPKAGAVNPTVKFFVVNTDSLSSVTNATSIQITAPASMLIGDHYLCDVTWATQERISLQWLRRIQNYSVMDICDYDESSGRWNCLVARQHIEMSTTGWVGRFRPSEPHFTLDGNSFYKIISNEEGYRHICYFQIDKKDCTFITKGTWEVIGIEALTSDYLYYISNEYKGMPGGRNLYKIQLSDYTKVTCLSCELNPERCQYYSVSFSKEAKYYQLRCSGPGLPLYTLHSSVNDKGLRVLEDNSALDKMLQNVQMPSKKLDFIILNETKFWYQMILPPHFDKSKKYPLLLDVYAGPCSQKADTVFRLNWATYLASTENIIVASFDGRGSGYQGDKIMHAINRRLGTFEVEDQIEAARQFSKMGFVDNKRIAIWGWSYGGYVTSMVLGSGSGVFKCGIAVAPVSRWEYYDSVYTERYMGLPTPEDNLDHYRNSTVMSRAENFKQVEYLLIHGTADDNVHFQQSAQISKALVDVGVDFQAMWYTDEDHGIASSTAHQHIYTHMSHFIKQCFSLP
Assay: DPP4 activity assay (DPP4 inhibitor screening assay kit, Cayman);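 note: fluorescence read at excitation 360 nm and emission 460 nm after the enzyme reaction ran 30 min at 37 °C in a 96-well plate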
Format: biochemical
Set-up: purchased Cayman Chemical, Ann Arbor, MI, USA
Details: 0.5 h, 10 µM; control mean 100.0; mean of Exp 1-3; read-out: DPP4 activity in library screen, Mean
Label MET when remaining activity at 10 µM < 90%; otherwise NOT MET.

Query: For this compound, is remaining activity at 10 µM lower than 90%? OC[C@H]1O[C@@H](Oc2cc(O)cc(/C=C/c3ccc(O)cc3)c2)[C@H](O)[C@@H](O)[C@@H]1O [Polydatin]
Result: MET

Query: For this compound, is remaining activity at 10 µM lower than 90%? COc1c(O)cc2c(c1O)[C@@H]1O[C@H](CO)[C@@H](O)[C@H](O)[C@H]1OC2=O [Bergenin]
Result: NOT MET

Query: For this compound, is remaining activity at 10 µM lower than 90%? O=C(O)Cc1c[nH]c2ccccc12 [Indole-3-acetic acid]
Result: NOT MET

Query: For this compound, is remaining activity at 10 µM lower than 90%? COc1cc(C2Oc3cc([C@H]4Oc5cc(O)cc(O)c5C(=O)[C@@H]4O)ccc3OC2CO)ccc1O (some centres unmarked) [Silibinin]
Result: MET

Query: For this compound, is remaining activity at 10 µM lower than 90%? O=[N+]([O-])c1ncc[nH]1 [Azomycin]
Result: MET

Query: For this compound, is remaining activity at 10 µM lower than 90%? COc1ccc([C@@]23Oc4cc(OC)cc(OC)c4[C@]2(O)[C@H](O)[C@H](C(=O)N(C)C)[C@H]3c2ccccc2)cc1 [Rocaglamide]
Result: NOT MET

Query: For this compound, is remaining activity at 10 µM lower than 90%? O=C1c2c(O)cc(O)cc2OC(c2ccc(O)c(O)c2)C1O (centres unmarked) [Taxifolin (Dihydroquercetin), Taxifolin]
Result: MET

Query: For this compound, is remaining activity at 10 µM lower than 90%? OC[C@H]1O[C@@H](OCCc2ccc(O)cc2)[C@H](O)[C@@H](O)[C@@H]1O [Salidroside]
Result: NOT MET

Query: For this compound, is remaining activity at 10 µM lower than 90%? O=C(/C=C/C=C/c1ccc2c(c1)OCO2)N1CCCCC1 [Piperine]
Result: MET

Query: For this compound, is remaining activity at 10 µM lower than 90%? COc1ccc(CCC(=O)c2c(O)cc(O[C@@H]3O[C@H](CO)[C@@H](O)[C@H](O)[C@H]3O[C@@H]3O[C@@H](C)[C@H](O)[C@@H](O)[C@H]3O)cc2O)cc1O [Neohesperidin dihydrochalcone (Nhdc), Neohesperidin dihydrochalcone]
Result: MET

Query: For this compound, is remaining activity at 10 µM lower than 90%? Oc1cc2c(cc1O)[C@@H]1c3ccc(O)c(O)c3OC[C@]1(O)C2 [Hematoxylin]
Result: MET

Query: For this compound, is remaining activity at 10 µM lower than 90%? C[C@@H]1O[C@@H](OC[C@H]2O[C@@H](Oc3c(-c4ccc(OCCO)c(OCCO)c4)oc4cc(OCCO)cc(O)c4c3=O)[C@H](O)[C@@H](O)[C@@H]2O)[C@H](O)[C@H](O)[C@H]1O [Troxerutin]
Result: MET

Query: For this compound, is remaining activity at 10 µM lower than 90%? O=c1cc(-c2ccccc2)oc2cc(O)cc(O)c12 [Chrysin]
Result: MET

Query: For this compound, is remaining activity at 10 µM lower than 90%? O=C1C[C@@H](c2ccc(O)cc2)Oc2cc(O)cc(O)c21 [Naringenin]
Result: MET

Query: For this compound, is remaining activity at 10 µM lower than 90%? O=c1[nH]cnc2c1ncn2[C@@H]1O[C@H](CO)[C@@H](O)[C@H]1O [Inosine]
Result: NOT MET

Query: For this compound, is remaining activity at 10 µM lower than 90%? C[C@H]1[C@H](C)CC[C@]2(C(=O)O)CC[C@]3(C)C(=CC[C@@H]4[C@@]5(C)C[C@@H](O)[C@H](O)[C@@](C)(CO)[C@@H]5CC[C@]43C)[C@H]12 [Asiatic Acid]
Result: NOT MET

Query: For this compound, is remaining activity at 10 µM lower than 90%? O=c1c(O)c(-c2ccc(O)cc2)oc2cc(O)cc(O)c12 [Kaempferol]
Result: MET

Query: For this compound, is remaining activity at 10 µM lower than 90%? O=C(O)[C@H]1O[C@@H](Oc2cc3oc(-c4ccccc4)cc(=O)c3c(O)c2O)[C@H](O)[C@@H](O)[C@@H]1O [Baicalin]
Result: MET

Query: For this compound, is remaining activity at 10 µM lower than 90%? C[C@H]1C(=O)O[C@@H]2CCN3CC=C(COC(=O)[C@](C)(O)[C@]1(C)O)[C@H]23 [Monocrotaline]
Result: MET

Query: For this compound, is remaining activity at 10 µM lower than 90%? Cc1cc(O)c2c(c1)C(=O)c1cccc(O)c1C2=O [Chrysophanol]
Result: MET

Query: For this compound, is remaining activity at 10 µM lower than 90%? COc1ccc(-c2cc(=O)c3c(OC)c(OC)c(OC)c(OC)c3o2)cc1 [Tangeretin]
Result: MET

Query: For this compound, is remaining activity at 10 µM lower than 90%? OCc1c[nH]c2ccccc12 [Indole-3-carbinol]
Result: NOT MET

Query: For this compound, is remaining activity at 10 µM lower than 90%? O=C1C=CC[C@@H]2[C@H]3CCCN4CCC[C@@H](CN12)[C@@H]34 [Sophocarpine]
Result: NOT MET

Query: For this compound, is remaining activity at 10 µM lower than 90%? CC1=C(CC/C(C)=C/CCC2=CC[C@H](C3=CC(=O)O[C@H]3O)O[C@H]2O)C(C)(C)CCC1 [Manoalide]
Result: NOT MET

Query: For this compound, is remaining activity at 10 µM lower than 90%? c1coc(CNc2ncnc3[nH]cnc23)c1 [Kinetin]
Result: NOT MET

Query: For this compound, is remaining activity at 10 µM lower than 90%? Cc1coc2c1C(=O)C(=O)c1c-2ccc2c(C)cccc12 [Tanshinone I]
Result: MET

Query: For this compound, is remaining activity at 10 µM lower than 90%? COc1cc(O)c(CC=C(C)C)c(O)c1C(=O)/C=C/c1ccc(O)cc1 [Xanthohumol]
Result: NOT MET
